Tested on: K562 SF3B1 K700E vs K562 SF3B1 WT
Method Summary: surviving fraction ratio K562 SF3B1 K700E / K562 SF3B1 WT (each relative to DMSO); higher = less selective killing of SF3B1 K700E cells
Condition Notes: 50nM; 5 days
Quantity Measured: surviving fraction ratio K562 SF3B1 K700E / K562 SF3B1 WT

[
  {
    "Molecule": "CC[C@@H]1C(=O)N(C)c2cnc(Nc3ccc(C(=O)NC4CCN(C)CC4)cc3OC)nc2N1C1CCCC1",
    "Result": 2.89
  },
  {
    "Molecule": "CCc1cc(Nc2nccc(-c3c(-c4ccc(OC)c(C(=O)Nc5c(F)cccc5F)c4)nc4ccccn34)n2)c(OC)cc1N1CCC(N2CCN(S(C)(=O)=O)CC2)CC1",
    "Result": 0.817
  },
  {
    "Molecule": "C[C@@H]1CN(CC(=O)Nc2ccc3c(c2)Cc2cccc(-c4cc(=O)cc(N5CCOCC5)o4)c2S3)C[C@H](C)O1",
    "Result": 1.08
  },
  {
    "Molecule": "CCN(CC)CCCCNc1ncc2cc(-c3cc(OC)cc(OC)c3)c(NC(=O)NC(C)(C)C)nc2n1",
    "Result": 0.901
  },
  {
    "Molecule": "COc1cc2c(cc1O)CC[C@@H]1[C@@H]2CC[C@]2(C)[C@@H](O)CC[C@@H]12 [2-methoxyestradiol]",
    "Result": 0.706
  },
  {
    "Molecule": "C[C@H](CN(C)C)Oc1nc(Nc2cc3cccc(Cl)c3cn2)cnc1C#N",
    "Result": 0.826
  },
  {
    "Molecule": "O=C(c1cc(Cc2n[nH]c(=O)c3ccccc23)ccc1F)N1CCN(C(=O)C2CC2)CC1 [olaparib]",
    "Result": 0.947
  },
  {
    "Molecule": "Cn1c(=O)n(-c2ccc(C(C)(C)C#N)cc2)c2c3cc(-c4cnc5ccccc5c4)ccc3ncc21",
    "Result": 0.811
  },
  {
    "Molecule": "Cc1ccc(NC(=O)c2ccc(CN3CCN(C)CC3)cc2)cc1Nc1nccc(-c2cccnc2)n1 [imatinibmesylate]",
    "Result": 0.55
  },
  {
    "Molecule": "COc1ccc(C2=N[C@@H](c3ccc(Cl)cc3)[C@@H](c3ccc(Cl)cc3)N2C(=O)N2CCNC(=O)C2)c(OC(C)C)c1 [Nutlin3]",
    "Result": 0.861
  },
  {
    "Molecule": "CN(C)C/C=C/C(=O)Nc1cc2c(Nc3ccc(F)c(Cl)c3)ncnc2cc1O[C@H]1CCOC1",
    "Result": 0.795
  },
  {
    "Molecule": "COc1cc2ncnc(Nc3ccc(F)c(Cl)c3)c2cc1OCCCN1CCOCC1 [gefitinib]",
    "Result": 0.792
  },
  {
    "Molecule": "COc1cc2c(Oc3ccc(NC(=O)C4(C(=O)Nc5ccc(F)cc5)CC4)cc3F)ccnc2cc1OCCCN1CCOCC1 [Foretinib]",
    "Result": 0.775
  },
  {
    "Molecule": "CCn1c(C(=O)N(C2CC2)C2CC2)cc2c3c(ncn3C)c(Nc3cc(C)n(C)n3)nc21",
    "Result": 0.82
  },
  {
    "Molecule": "CC(=O)O[C@H]1C(=O)[C@@]2(C)[C@H]([C@H](OC(=O)c3ccccc3)[C@]3(O)C[C@H](OC(=O)[C@H](O)[C@@H](NC(=O)c4ccccc4)c4ccccc4)C(C)=C1C3(C)C)[C@]1(OC(C)=O)CO[C@@H]1C[C@@H]2O [paclitaxel]",
    "Result": 2.44
  }
]
